- TARGET_DESC: PARP7 (Homo sapiens (Human), UniProt Q7Z3E1)
- Sequence (Q7Z3E1 whole entry): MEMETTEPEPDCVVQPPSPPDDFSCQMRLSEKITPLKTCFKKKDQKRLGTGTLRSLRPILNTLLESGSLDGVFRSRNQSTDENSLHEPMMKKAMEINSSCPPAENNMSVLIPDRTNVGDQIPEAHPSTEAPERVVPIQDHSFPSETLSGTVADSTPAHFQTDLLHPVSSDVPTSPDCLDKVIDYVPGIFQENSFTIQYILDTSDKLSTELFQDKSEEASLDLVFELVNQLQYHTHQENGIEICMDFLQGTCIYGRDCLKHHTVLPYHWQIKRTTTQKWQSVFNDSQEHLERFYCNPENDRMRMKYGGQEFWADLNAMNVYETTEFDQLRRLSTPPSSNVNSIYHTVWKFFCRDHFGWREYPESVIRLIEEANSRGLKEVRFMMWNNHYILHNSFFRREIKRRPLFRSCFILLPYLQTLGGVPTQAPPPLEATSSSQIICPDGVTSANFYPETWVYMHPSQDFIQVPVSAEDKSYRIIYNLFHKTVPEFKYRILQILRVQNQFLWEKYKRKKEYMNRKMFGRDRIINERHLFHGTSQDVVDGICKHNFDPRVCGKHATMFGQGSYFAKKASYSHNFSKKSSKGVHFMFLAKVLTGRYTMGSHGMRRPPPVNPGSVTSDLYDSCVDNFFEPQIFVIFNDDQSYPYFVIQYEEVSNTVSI
- METHOD_DESCRIPTION: Enzymatic assay for inhibition of PARP7: TR-FRET displacement of biotinylated Probe A from the TIPARP active site
- CONDITION_PARAMETERS: Table A-1
Assign IC50 to each entry below.

Checklist item: IC50 tested on PARP7 (Homo sapiens (Human), UniProt Q7Z3E1), entry NCCOc1cccc2c1CN(c1cn[nH]c(=O)c1C(F)(F)F)C2 [Example 209] , value? < 100 nM

Recall the recorded IC50 for O=c1[nH]ncc(N2Cc3cccc(OC4CCNC4)c3C2)c1Cl (stereo not shown) [Example 242] with PARP7 (Homo sapiens (Human), UniProt Q7Z3E1) and state it. 100 to 1000 nM

Give the reported IC50 for O=C(C[C@H]1CC[C@H](COc2cn[nH]c(=O)c2C(F)(F)F)O1)N1CCN(c2ccc(C(F)(F)F)cn2)CC1 (single isomer, unassigned) [Example 545 Isomer C] (system: PARP7 (Homo sapiens (Human), UniProt Q7Z3E1)). < 100 nM

What IC50 appears in the records for this compound with PARP7 (Homo sapiens (Human), UniProt Q7Z3E1)? O=c1[nH]ncc(N2Cc3cccc(OC[C@@H]4CCCO4)c3C2)c1C(F)(F)F (single isomer, unassigned) [Example 222] < 100 nM

Record CN(C)CCOc1cccc2c1CN(c1cn[nH]c(=O)c1C(F)(F)F)C2 [Example 212] : what is its IC50 with PARP7 (Homo sapiens (Human), UniProt Q7Z3E1)? 100 to 1000 nM

For PARP7 (Homo sapiens (Human), UniProt Q7Z3E1), provide IC50 of O=C(CCOC[C@@H]1CCCN1c1cn[nH]c(=O)c1C(F)(F)F)N1CCN(c2ccc(C(F)(F)F)cn2)CC1 [Example 458] please. < 100 nM

Find the measured IC50: item N#Cc1ccc(N2CC3CCC2CN3C(=O)CCOC[C@@H]2CCCN2c2cn[nH]c(=O)c2C(F)(F)F)nc1 (stereo partly shown) [Example 101] , target or system PARP7 (Homo sapiens (Human), UniProt Q7Z3E1). < 100 nM

* * *

- TARGET_DESC: PARP7 (Homo sapiens (Human))
- METHOD_DESCRIPTION: Enzymatic assay for inhibition of PARP7: TR-FRET displacement of biotinylated Probe A from the TIPARP active site
- CONDITION_PARAMETERS: Table A-1
pIC50: −log10 of the molar value.
Would you kindly list pIC50 for each of these compounds?

Quick check: pIC50 of COc1cccc2c1CN(c1cn[nH]c(=O)c1C)C2 ? 6.00 to 7.00

Requested read-out: pIC50. Entry: C[C@@H](COCCC(=O)N1CCN(c2ccccn2)CC1)Nc1cn[nH]c(=O)c1C(F)(F)F > 7.00

Could you tell me which pIC50 is on file for C[C@@H](COCCC(=O)N1CCN(c2cc(C(F)(F)F)ccn2)CC1)Nc1cn[nH]c(=O)c1C(F)(F)F ? > 7.00

pIC50 for COc1cc2c(cc1F)CN(c1cn[nH]c(=O)c1C(F)(F)F)C2 ? > 7.00

* * *

Answer each item with its documented IC50.
- TARGET_DESC: PARP7 (Homo sapiens (Human), UniProt Q7Z3E1)
- METHOD_DESCRIPTION: Enzymatic assay for inhibition of PARP7: TR-FRET displacement of biotinylated Probe A from the TIPARP active site
- CONDITION_PARAMETERS: Table A-1
- Protocol: 20 nL of a dose response curve of each test compound was spotted in black 384-well polystyrene proxiplates (Perkin Elmer) using a Mosquito (TTP Labtech). […] Reactions were incubated at 25° C. for an additional 30 min, then read on an Envision platereader equipped with a LANCE/DELFIA top mirror (Perkin Elmer) using excitation of 320 nm and emission of 615 nm and 665 nM with a 90 μs delay. […]

Notebook: pull reported IC50 for PARP7 (Homo sapiens (Human), UniProt Q7Z3E1), entry N#Cc1ccc(N2CCN(C(=O)C[C@H]3CC[C@H](COc4cn[nH]c(=O)c4C(F)(F)F)N3)CC2)nc1 100 to 1000 nM

Please tell me: IC50 of CC(=O)NCC1c2ccccc2CN1c1cn[nH]c(=O)c1C(F)(F)F (stereo not shown) , system PARP7 (Homo sapiens (Human), UniProt Q7Z3E1)? ≥ 1000 nM

Report IC50 for N#Cc1ccc(N2CCN(C(=O)c3cncc(OC[C@@H]4c5ccccc5CN4c4cn[nH]c(=O)c4C(F)(F)F)c3)CC2)nc1 tested on PARP7 (Homo sapiens (Human), UniProt Q7Z3E1). < 100 nM

What measured IC50 is associated with O=C(COC[C@@H]1CCCN1c1cn[nH]c(=O)c1C(F)(F)F)N1CCN(c2ccccn2)CC1 on PARP7 (Homo sapiens (Human), UniProt Q7Z3E1)? 100 to 1000 nM

Lab note: need IC50 for C[C@@H](COCCC(=O)N1CCN(c2ncc(C(F)(F)F)cn2)CC1)Nc1cn[nH]c(=O)c1Br on PARP7 (Homo sapiens (Human), UniProt Q7Z3E1), anyone have it? < 100 nM

Request: IC50, test system PARP7 (Homo sapiens (Human), UniProt Q7Z3E1), entry C[C@@H](CSCCC(=O)N1CCN(c2ncc(C(F)(F)F)cn2)CC1)Nc1cn[nH]c(=O)c1C(F)(F)F < 100 nM

Given the entry N#Cc1ccc(N2CCN(C(=O)CCNC(=O)C[C@@H]3CCCN3c3cn[nH]c(=O)c3C(F)(F)F)CC2)nc1 , what IC50 was observed with PARP7 (Homo sapiens (Human), UniProt Q7Z3E1)? 100 to 1000 nM

Every entry's value here was drawn from patent US10550105B2.
